PROCEDURE_DETAILS: NCI Yeast Anticancer Drug Screen. Data for the rad50 strain (AID 155);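 note: 0% = growth of vehicle-only cultures of the same strain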
EXPERIMENTAL_CONTEXT: S. cerevisiae rad50 strain growth inhibition; at 50.0 µM; active compounds read high
About 79,000 compounds went through this panel and 15% of them were active in at least one assay; those are over-represented in the sample as a whole.
Listed below: growth inhibition values for each entry.

COMPOUND: CC(=O)NCCSSCCCCS(=O)O
growth inhibition [%]: -19.1
--
COMPOUND: CC(=O)C(C(C)=O)[N+](=O)[O-].CC(=O)C(C(C)=O)[N+](=O)[O-].[Cu]
growth inhibition [%]: 17.1
--
COMPOUND: COc1ccc(-c2oc3cc(OC)ccc3c(=O)c2O)cc1
growth inhibition [%]: 22.5
--
COMPOUND: CN1C(=O)N(C)C(=O)C(C)(NS(=O)(=O)c2ccc(NC(=O)CCC(=O)O)cc2)C1=O
growth inhibition [%]: 17.6
--
COMPOUND: CCC(=O)Nc1cc([N+](=O)[O-])cc([N+](=O)[O-])c1
growth inhibition [%]: 8.1
--
COMPOUND: N#C/C(=C1\OC(=O)C(c2ccc(Br)cc2)=C1O)c1ccc(Br)cc1
growth inhibition [%]: 8.15
--
COMPOUND: CSc1nc2ncnc(N(C)C)c2[nH]1
growth inhibition [%]: 1.1
--
COMPOUND: O=C(O)C(Br)C(Br)C(=O)Nc1cccc(Cl)c1 (centres undefined)
growth inhibition [%]: 0.5
--
COMPOUND: CCCCCCCCCCCCCCCCc1ccc(CCCC(=O)O)cc1
growth inhibition [%]: -20.8
--
COMPOUND: CC1=C/C(=N\O)C(C(O)(C(F)(F)F)C(F)(F)F)C(C)(C)C1 (centres undefined)
growth inhibition [%]: -37.7
--
COMPOUND: Cc1nn(C23CC4CC(CC(C4)C2)C3)c(C(Cl)Cl)c1Cl
growth inhibition [%]: -4.4
--
COMPOUND: C/C(=N\n1cc(-c2ccccc2)nc1N)c1ccccc1
growth inhibition [%]: -2.8
--
COMPOUND: COC(=O)[C@H]1C=C[C@@H](C)n2c(=O)c3cc4ccccc4cc3c(=O)n21
growth inhibition [%]: -21.2
--
COMPOUND: CC(=O)Nc1ccc(C(C#N)C(C#N)c2ccccc2)cc1 (centres undefined)
growth inhibition [%]: -1.5
--
COMPOUND: Cc1cc(Cl)ccc1NC(=O)/C(Cc1nc2ccc(C(=O)c3ccccc3)cc2[nH]c1=O)=N/NC(=O)c1ccncc1
growth inhibition [%]: 21.9
--
COMPOUND: CCCCCCCCCCCCCCCCCC(=O)OC(C(O)C=O)C(O)C(O)CO (centres undefined)
growth inhibition [%]: 12.6
--
COMPOUND: CCCCC(CC)(SC(CC)C(N)=O)C(N)=O (centres undefined)
growth inhibition [%]: -2.2
--
COMPOUND: CC1(c2ccccc2)CCC(=O)NC1 (centres undefined)
growth inhibition [%]: -0.15
--
COMPOUND: CN(C)C(=NN)N(C)C
growth inhibition [%]: 0.5
--
COMPOUND: CC(=O)OC1CC(O)C23COC(O)C1(C)C2CC(O)C1(C)C3C(=O)C(O)C2(C)C(c3ccoc3)CC3OC321 (centres undefined)
growth inhibition [%]: -9.9
--
COMPOUND: Cc1ccc(C)c(NC(=O)C(=O)C2C(=O)C3=C(CC2(C)C)Nc2ccccc2S3)c1 (centres undefined)
growth inhibition [%]: -21.2
--
COMPOUND: Nc1ccc(N)c(N)c1
growth inhibition [%]: 26.3
--
COMPOUND: O=C1CCSC(=S)N1c1ccccc1
growth inhibition [%]: 38.2
--
COMPOUND: O=C(Nc1cccc(O)c1)c1ccccc1Cl
growth inhibition [%]: 9.3

====

PROCEDURE_DETAILS: NCI Yeast Anticancer Drug Screen. Data for the sgs1 mgt1 strain (AID 161);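 note: 0% = growth of cultures given vehicle only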
EXPERIMENTAL_CONTEXT: S. cerevisiae sgs1 mgt1 strain, at 50.0 µM, active compounds read high
The panel holds about 79,000 compounds, 15% with a hit somewhere; the sample as a whole holds those more often.
Listed below: growth inhibition values for each entry.
QUANTITY: growth inhibition (%)

COMPOUND: CC(O)c1cccc(C(C)(C)O)c1Sc1c(C(C)(C)O)cccc1C(C)(C)O (configuration not stated)
MEASURED_VALUE: 10.1
//
COMPOUND: Oc1ccccc1/C=N/n1cnnc1
MEASURED_VALUE: -3.5
//
COMPOUND: Cc1nc(-n2nc(-c3ccccc3)cc2-c2ccccc2)sc1C(/C=C/c1ccc([N+](=O)[O-])cc1)=N/NC(N)=S
MEASURED_VALUE: 12.7
//
COMPOUND: O=[N+]([O-])c1cccc(/C=[N+](\[O-])c2ccccc2)c1
MEASURED_VALUE: 13
//
COMPOUND: C(=N/N=C(/C(=N/N=C/c1ccccc1)c1ccccc1)c1ccccc1)\c1ccccc1
MEASURED_VALUE: 33.3
//
COMPOUND: ClCCCCCOCCCCCCl
MEASURED_VALUE: -1.5
//
COMPOUND: CN(C)C(=O)Nc1ccc(F)cc1
MEASURED_VALUE: 13.6
//
COMPOUND: O=C(/C=C/c1ccc(O)cc1)OCC1OC(Oc2cc(O)c3c(c2)OC(c2ccc(O)cc2)CC3=O)C(O)C(O)C1O (configuration not stated)
MEASURED_VALUE: 9.6
//
COMPOUND: Cc1cccc(NC(=O)COc2ccc(Cl)cc2)c1C
MEASURED_VALUE: 5.1
//
COMPOUND: COc1cc(/C=C\C(=O)c2cccc([N+](=O)[O-])c2)cc(OC)c1OC
MEASURED_VALUE: 13.9
//
COMPOUND: Fc1ccccc1C1CC(c2ccc3ccccc3c2)=Nc2ccccc2S1 (configuration not stated)
MEASURED_VALUE: 18.4
//
COMPOUND: CSc1cc2c(cc1NC(C)=O)Cc1ccccc1-2
MEASURED_VALUE: 0.6
//
COMPOUND: O=C1CCC2CCC1C2 (configuration not stated)
MEASURED_VALUE: -41.3
//
COMPOUND: CN1Cc2ccccc2-c2ccccc2C1
MEASURED_VALUE: -5.95
//
COMPOUND: Oc1ccc(Oc2cc3c(cc2Oc2ccc(O)cc2)-c2nc-3nc3[nH]c(nc4nc(nc5[nH]c(n2)c2cc(Oc6ccc(O)cc6)c(Oc6ccc(O)cc6)cc52)-c2cc(Oc5ccc(O)cc5)c(Oc5ccc(O)cc5)cc2-4)c2cc(Oc4ccc(O)cc4)c(Oc4ccc(O)cc4)cc32)cc1
MEASURED_VALUE: -119
//
COMPOUND: O=C1/C(=C/c2ccc(O)c(CN3CCCCC3)c2)CCC/C1=C\c1ccc(O)c(CN2CCCCC2)c1
MEASURED_VALUE: 1.75
//
COMPOUND: Cc1cc(=O)[nH]c(NN)n1
MEASURED_VALUE: -1.85
//
COMPOUND: OC1(c2ccccc2)CCCN(Cc2ccccc2)C1 (configuration not stated)
MEASURED_VALUE: 6.6
//
COMPOUND: NCCCCC(C(=O)NCC(=O)O)N(C(=O)OCc1ccccc1)C(=O)OCc1ccccc1 (configuration not stated)
MEASURED_VALUE: -0.55
//
COMPOUND: COC(=O)C1=CC(O)CCC1c1ccc(OC)cc1 (configuration not stated)
MEASURED_VALUE: -13.2
//
COMPOUND: Cc1ccc(C)n1-n1c(-c2ccccc2)n[nH]c1=O
MEASURED_VALUE: -2.7
//
COMPOUND: COC(=O)CC1C2C=CN(C(=O)OC)N(C(=O)OC)C21 (configuration not stated)
MEASURED_VALUE: 6.35

====

PROCEDURE_DETAILS: NCI Yeast Anticancer Drug Screen. Data for the mec2-1 strain (AID 157)
EXPERIMENTAL_CONTEXT: S. cerevisiae mec2-1 strain, at 50.0 µM, active compounds read high
About 79,000 compounds went through this panel and 15% of them were active in at least one assay; those are over-represented in the sample as a whole. Where a SMILES comes first, the peptide text is derived from it. The star is where a group is joined. Cbz = O=C(OCc1ccccc1)*
QUANTITY: growth inhibition (%)

COMPOUND: CCOC(=O)C(C)NC(=O)C(C)NC(=O)C(C)NC(=O)C(C)NC(=O)C(C)NC(=O)C(C)NC(=O)C(C)NC(=O)OCc1ccccc1 (stereo unspecified) (Cbz-AAAAAAA-OEt; configuration not given here)
UNITS_TEXT: %
MEASURED_VALUE: -23.4
--
COMPOUND: O=C(Nc1cccc(Cl)c1Cl)Oc1ccc(Cl)cc1C(=O)c1ccccc1
UNITS_TEXT: %
MEASURED_VALUE: -1
--
COMPOUND: CCCCCCCCCCCCCCCCCCCCCC
UNITS_TEXT: %
MEASURED_VALUE: -26.1
--
COMPOUND: CCCS(=O)(=O)CCC(=O)c1ccccc1
UNITS_TEXT: %
MEASURED_VALUE: -7.9
--
COMPOUND: COC1=CC(=C(\C#N)c2ccc(Cl)cc2)/C=CC/1=N/O
UNITS_TEXT: %
MEASURED_VALUE: 11.6
--
COMPOUND: O=C(Sc1c(-c2ccccc2)c(=O)n(-c2ccccc2)c(=S)n1-c1ccccc1)c1ccc(Cl)cc1
UNITS_TEXT: %
MEASURED_VALUE: 3.9
